Tested on: ATP;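 note: ATP exposure 15 min at 22 °C before imaging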
assay-details: switch fluorescence ratio, 500 uM ATP over buffer (Cy3 cluster intensity, sum of 5 cycles each) (fold (ratio)); higher = stronger signal-on switching upon ATP binding; sequences stand for … in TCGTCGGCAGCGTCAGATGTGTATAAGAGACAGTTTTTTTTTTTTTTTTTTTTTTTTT…TC
setup-conditions: aptamer strand: ATP DNA aptamer (quencher-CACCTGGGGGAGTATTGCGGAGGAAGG + anchor), 100 nM annealed; ATP concentration: 500 uM
The following sequences are shown together with reported switch fluorescence ratio values.
Answer with a number only.

In the examples that follow, each entry is paired with its recorded switch fluorescence ratio.
1) TACGTCGCTG 0.971
2) GGAGTCTTGT 1.01
3) CGCGAAGGGT 1.01

The value of switch fluorescence ratio measured for the sequence TTGTAGTTTG turned out to be 0.977

The reported switch fluorescence ratio of the sequence CTTAGGGGGT was 1

Each recorded value in this set is attributed to the supplement of paper PMC10126150.
